# tested_system: K-Ras G12C (Homo sapiens, UniProt P01116+P62937, G12C)
# Construct: endogenous in cells
# Sequence (P01116 1-188 isoform P01116-2 G12C): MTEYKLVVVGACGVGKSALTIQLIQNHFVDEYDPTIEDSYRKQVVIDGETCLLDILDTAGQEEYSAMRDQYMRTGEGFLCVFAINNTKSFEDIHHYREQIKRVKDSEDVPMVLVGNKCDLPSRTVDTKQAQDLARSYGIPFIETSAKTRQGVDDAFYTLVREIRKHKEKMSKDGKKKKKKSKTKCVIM
# Sequence (P62937 whole entry): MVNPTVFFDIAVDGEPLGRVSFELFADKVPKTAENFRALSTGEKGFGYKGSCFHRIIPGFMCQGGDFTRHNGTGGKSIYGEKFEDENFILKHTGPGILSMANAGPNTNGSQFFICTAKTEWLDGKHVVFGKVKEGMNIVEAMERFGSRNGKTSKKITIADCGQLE
# assay_text: pERK potency assay in NCI-H358 cells (AlphaLISA SureFire or In-Cell Western)
# applied_conditions: 4 hours incubation
# Description: The purpose of this assay was to measure the ability of test compounds to inhibit K-Ras in cells. […] This procedure measures a decrease in cellular pERK in response to test compounds. […] In some experiments, cellular pERK level was determined using the AlphaLISA SureFire Ultra p-ERK1/2 Assay Kit (PerkinElmer). […] Signal was read on an Envision plate reader (PerkinElmer) using standard AlphaLISA settings. […] In other experiments, cellular pERK was determined by In-Cell Western. […]
endpoint_name: IC50

[[record]]
molecule = "CCn1c(-c2cccnc2[C@H](C)OC)c2c3cc(ccc31)N1CCO[C@@H](C[C@H](NC(=O)[C@H](C(C)C)N(C)C(=O)N3CCC4(CC3)CN(C(=O)/C=C/CF)C4)C(=O)N3CCC[C@H](N3)C(=O)OCC(C)(C)C2)C1 (atropisomer, axis not shown)"
experimental_result = "> 1000 nM"

[[record]]
molecule = "C=CC(=O)N1CCOC2(CCN(C(=O)N(C)[C@H](C(=O)N[C@H]3Cc4nccc(n4)-c4ccc5c(c4)c(c(-c4cccnc4[C@H](C)OC)n5CC)CC(C)(C)COC(=O)[C@@H]4CCCN(N4)C3=O)C(C)C)CC2)C1 (atropisomer, axis not shown)"
experimental_result = "> 1000 nM"


----------
# tested_system: K-Ras G12C (Homo sapiens, UniProt P01116+P62937, G12C)
# Construct: endogenous in cells
# assay_text: pERK potency assay in NCI-H358 cells (AlphaLISA SureFire or In-Cell Western)
# applied_conditions: 4 hours incubation
endpoint_name: IC50

[[record]]
compound = "C=CC(=O)N1COC2(CCN(C(=O)N(C)[C@H](C(=O)N[C@H]3CC4=NC=C(O4)c4ccc5c(c4)c(c(-c4cccnc4[C@H](C)OC)n5CC)CC(C)(C)COC(=O)[C@@H]4CCCN(N4)C3=O)C(C)C)CC2)C1 (atropisomer, axis not shown)"
experimental_result = "> 1000 nM"

[[record]]
compound = "C=CC(=O)N1CCOC2(CCN(C(=O)N(C)[C@H](C(=O)N[C@H]3Cc4cncc(n4)-c4ccc5c(c4)c(c(-c4cccnc4[C@H](C)OC)n5CC)CC(C)(C)COC(=O)[C@@H]4CCCN(N4)C3=O)C(C)C)CC2)C1 (atropisomer, axis not shown)"
experimental_result = "> 1000 nM"

[[record]]
compound = "C=CC(=O)N1CCN(C)C2(CCN(C(=O)N(C)[C@H](C(=O)N[C@H]3C[C@H]4CN(CCO4)c4ccc5c(c4)c(c(-c4cccnc4[C@H](C)OC)n5CC)CC(C)(C)COC(=O)[C@@H]4CCCN(N4)C3=O)C(C)C)CC2)C1 (atropisomer, axis not shown)"
experimental_result = "> 1000 nM"

[[record]]
compound = "C=CC(=O)N1CCOC2(CCN(C(=O)N(C)[C@H](C(=O)N[C@H]3C[C@@]4(C)CN(CCO4)c4ccc5c(c4)c(c(-c4cccnc4[C@H](C)OC)n5CC)CC(C)(C)COC(=O)[C@@H]4CCCN(N4)C3=O)C(C)C)CC2)C1 (atropisomer, axis not shown)"
experimental_result = "> 890 nM"


Every entry's value here was drawn from patent US20230106174A1.
